Target: Neurogenic locus notch homolog protein 2 (Homo sapiens)
Experiment: Notch2 binders on small-molecule microarrays, primary screen, biochemical, small-molecule microarray, 635 nm fluorescence, stem cell growth factors (AID 1073)
Settings: Notch2 binding, higher = more signal
Kind request: treat 1 as inclusive, so composite z-score at 1 or higher is Criterion met, anything lower is Criterion not met.

Take a look at these entries with their results.
- COMPOUND: "COCCOC(=O)N1C(=O)[C@@]2(c3cc(C#CCCO)ccc31)[C@H](C(=O)Nc1nc3ccccc3s1)[C@H]1C(=O)O[C@H](c3ccccc3)[C@H](c3ccccc3)N1[C@@H]2c1ccccc1OCCO"
  ASSAY_SYSTEM: "Neurogenic locus notch homolog protein 2 (Homo sapiens)"
  GROUP: "Criterion met"
- COMPOUND: "COC(=O)c1cn(C[C@@H](Cc2ccccc2)NC(=O)N[C@H](CO)CCc2oc(C(C)=O)c(C(=O)OC)c2C(=O)OC)nn1"
  ASSAY_SYSTEM: "Neurogenic locus notch homolog protein 2 (Homo sapiens)"
  GROUP: "Criterion not met"

Determine whether measured composite z-score meets or exceeds 1 for O=C1OCC=C[C@H]2OC34C=CCN(Cc5ccccc5)C(=O)[C@H]3N(CCCCCCO)C(=O)[C@@H]4[C@@H]12 (some centres not stated)
Criterion not met

Determine whether measured composite z-score meets or exceeds 1 for `CCOC(=O)C1=C[C@@H](c2ccccc2)N(S(=O)(=O)c2ccc(C)cc2)[C@H]1c1ccccc1Cl`
Criterion met

Determine whether measured composite z-score meets or exceeds 1 for `COc1ccc([Si](C)(C)[C@@H]2[C@@H](CC(=O)N(CCO)Cc3ccccc3)O[C@]3(C(=O)N(Cc4cccc(N5C(=O)c6cccc7cccc5c67)c4)c4ccccc43)[C@H]2C)cc1`
Criterion not met

Determine whether measured composite z-score meets or exceeds 1 for `C=CCN1C(=O)[C@@]2(CCS(=O)(=O)c3ccccc3)N=C(c3ccc(OCCCO)cc3)O[C@H]2c2ccccc21`
Criterion met

* * *

Molecular target: Calmodulin-1 (Homo sapiens) (UniProt P0DP23)
Assay: calcium-bound CALM1 binders on microarrays, profiling panel, artefact control for SMM control-protein annotation, biochemical, small-molecule microarray, Cy5-labelled CALM1, plus calcium (AID 1112);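 note: score merges spot fluorescence with signal to noise from triplicate slides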
Conditions: Cy5-CALM1 binding fluorescence, higher = more signal
READOUT_KIND: composite z-score
# respond with the number and nothing more

Guide cases for composite z-score, answers given:
- COMPOUND: "COCCCNC(=O)[C@]1(CCS(=O)(=O)c2ccccc2)N=C(c2ccc(OCCCO)cc2)O[C@@H]1c1ccccc1CN=[N+]=[N-]"
  ASSAY_SYSTEM: "Calmodulin-1 (Homo sapiens) (UniProt P0DP23)"
  composite z-score: 1.12
- COMPOUND: "C=C(C)c1cc2c(c(CCCCCC)n1)[Si](C(C)C)(C(C)C)OC2"
  ASSAY_SYSTEM: "Calmodulin-1 (Homo sapiens) (UniProt P0DP23)"
  composite z-score: 0.603
- COMPOUND: "O=C1C2C=CC(C(O)c3ccccc3)N(Nc3ccccc3F)C2C(=O)N1c1ccccc1 (stereo not given)"
  ASSAY_SYSTEM: "Calmodulin-1 (Homo sapiens) (UniProt P0DP23)"
  composite z-score: -0.537
- COMPOUND: "COC(=O)[C@@]1(Cc2ccc(F)cc2)[C@H]2c3cc(C(=O)N4CCCC4)n(CCN4CNCC4=O)c3C[C@H]2CN1C(=O)c1ccccc1"
  ASSAY_SYSTEM: "Calmodulin-1 (Homo sapiens) (UniProt P0DP23)"
  composite z-score: -0.234
- COMPOUND: "Cc1ccc(S[C@]2(C(=O)NCC(F)(F)F)CC(=O)N(Cc3ccccc3C(F)(F)F)[C@@H]2c2ccc(CO)cc2I)cc1"
  ASSAY_SYSTEM: "Calmodulin-1 (Homo sapiens) (UniProt P0DP23)"
  composite z-score: -0.214

// recorded composite z-score for `O=C1O[C@@H](c2ccccc2)[C@@H](c2ccccc2)N2[C@@H](c3ccc(OCCO)cc3)[C@]3(C(=O)Nc4ccccc43)[C@@H](C(=O)O)[C@H]12` : 0.883

// recorded composite z-score for `COCCOC(=O)N1C(=O)[C@@]2(c3cc(C#CCNC(N)=O)ccc31)[C@H](C(=O)N1CCc3cc(OC)c(OC)cc3C1)[C@H]1C(=O)O[C@H](c3ccccc3)[C@H](c3ccccc3)N1[C@@H]2c1ccccc1OCCO` : 0.582

// recorded composite z-score for C=C(C)[C@@H]1CC=C(C(O)C2C=CC3C(=O)N(c4ccccc4)C(=O)C3N2Nc2ccccc2F)CC1 (stereo not given in full) : 0.797

// recorded composite z-score for `COc1ccc(CCN2C(=O)[C@@]3(Cc4ccccc42)c2ccccc2C(=O)N(Cc2ccccc2OC)[C@H]3c2ccc(CO)cc2)cc1` : 0.466

// recorded composite z-score for `COCCOC(=O)N1C(=O)[C@@]2(c3cc(C#CC4=CCCCC4)ccc31)[C@H](C(=O)N1CCCCCCC1)[C@H]1C(=O)O[C@H](c3ccccc3)[C@H](c3ccccc3)N1[C@@H]2c1ccc(O)cc1` : 0.522

// recorded composite z-score for C=CCC(OC(C)=O)[C@@H]1[C@@H](N(Cc2cccc3ccccc23)C(=O)Cc2ccc(F)cc2)c2cc(OCCCO)ccc2N1C(=O)c1ccc2ccccc2n1 (stereo not given in full) : 0.398

// recorded composite z-score for O=C1OCC=C[C@H]2OC34C=CCN(Cn5nnc6ccccc65)C(=O)[C@H]3N(CCCO)C(=O)[C@@H]4[C@@H]12 (stereo not given in full) : 0.449

// recorded composite z-score for `C=CCNC(=O)[C@@H]1[C@H]2C(=O)O[C@H](c3ccccc3)[C@H](c3ccccc3)N2[C@H](c2ccc(O)cc2)[C@@]12C(=O)N(C(=O)OCCOC)c1ccc(C#CC3(O)CCCCCC3)cc12` : -0.123

// recorded composite z-score for `Cc1ccc(S[C@]2(C(=O)O)CC(=O)N(C3Cc4ccccc4C3)[C@@H]2c2ccc(CO)cc2)cc1` : 1.1

// recorded composite z-score for `C=C(COC)/C(=C/C[C@H](OC(=O)c1ccncc1)c1ccccc1OCCO)c1cnc2ccccc2c1` : -0.857

* * *

Listed next: entries and their corresponding composite z-score.
Experiment: binders of probe aFST on microarray, primary screen, stem cell growth factor project, biochemical, small-molecule microarray, fluorescence 635/667 (AID 1086);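 note: score merges 667 nm fluorescence with signal-to-noise of each printed compound spot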
Details: higher = more signal
# respond with the number and nothing more

Guide cases for composite z-score, answers given:
- MOLECULE: "O=C1NC(=O)C2C1C=CC(C(O)c1c(F)cccc1Cl)N2Nc1ccc(Cl)cc1Cl (stereo unspecified)"
  READOUT_KIND: "composite z-score"
  VALUE_MEASURED: 1.22
- MOLECULE: "COC(=O)CCCCCCC(=O)Nc1ccc(NC(=O)CCCC[P+](c2ccccc2)(c2ccccc2)c2ccccc2)cc1"
  READOUT_KIND: "composite z-score"
  VALUE_MEASURED: 0.352
- MOLECULE: "O=C1O[C@@H](c2ccccc2)[C@@H](c2ccccc2)N2[C@@H](c3ccccc3OCCO)[C@]3(C(=O)Nc4ccc(C#CCCO)cc43)[C@@H](C(=O)N3CCCCCCC3)[C@H]12"
  READOUT_KIND: "composite z-score"
  VALUE_MEASURED: 3.89
- MOLECULE: "CCC(CC)C(O)C1C=CC2C(=O)N(c3ccccc3)C(=O)C2N1Nc1ccc(C(C)C)cc1 (stereo unspecified)"
  READOUT_KIND: "composite z-score"
  VALUE_MEASURED: 1.21
- MOLECULE: "C=CCC(OC(C)=O)[C@@H]1[C@@H](N(Cc2ccc(-c3ccccc3)cc2)C(=O)Cc2ccc(F)cc2)c2cc(OCCCO)ccc2N1C(=O)Cc1ccc(OC)cc1 (stereo partly specified)"
  READOUT_KIND: "composite z-score"
  VALUE_MEASURED: 0.121

// recorded composite z-score for `COC(=O)[C@@]1(Cc2ccc(F)cc2)[C@H]2c3cc(C(=O)N4CCCC4)n(CCN4CNCC4=O)c3C[C@H]2CN1C(=O)c1ccccc1` : 1.26

* * *

Listed next: entries and their corresponding z-score.
Test: yeast growth modulation, basal conditions, primary screen, YJM789 clinical isolate, OD600, 24 h (AID 1089);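 note: growth of clinical yeast isolate S. cerevisiae YJM 789 seeded 1000 cells per well; test concentration not given here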
Details: S. cerevisiae YJM789 growth, higher = more signal, called active from +8 up or from −8 down
# respond with the number and nothing more

- COMPOUND: "O=C(NCC(F)(F)F)[C@@H]1c2ccccc2C(=O)N(Cc2cc(F)cc(C(F)(F)F)c2)[C@H]1c1ccc(CO)cc1"
  z-score: 0.0042
- COMPOUND: "COCCOC(=O)N1C(=O)[C@@]2(c3cc(C#CC4=CCCCC4)ccc31)[C@H](c1ccccc1OCCO)N1[C@H](c3ccccc3)[C@H](c3ccccc3)OC(=O)[C@H]1[C@@H]2C(=O)N1CCCCCCC1"
  z-score: 1.31

// recorded z-score for Cc1cc(C)c(C(O)C2C=CC3C(=O)N(c4ccccc4)C(=O)C3N2Nc2ccc(C(C)C)cc2)c(C)c1 (stereo unspecified) : 1.14

// recorded z-score for `COC(=O)[C@@]1(Cc2ccccc2)[C@H]2c3cc(C(=O)N(C)C)n(CCN4CNCC4=O)c3C[C@H]2CN1C(=O)c1ccccc1` : 0.258

The reported numbers originate from PubChem BioAssay.
